- target of assay: CDK2/cyclin A (Homo sapiens)
- Construct: made in house; host or cells: CDK2: insect cells (baculovirus); cyclin A: E. coli
- assay text: Inhibition of CDK2/cyclin A retinoblastoma kinase activity (Ki; % inhibition)
- Type: biochemical
- settings: at 0.03 μM
property: CDK2 % Inhibition at 0.03 μM (%)

{"compound": "Nc1nc(Nc2ccc(C(=O)NCC3CCCCC3)cc2)sc1C(=O)c1c(F)cccc1F", "property": "CDK2 % Inhibition at 0.03 μM", "readout number": 14}

A: CCN(CC)CCN(CC)C(=O)c1ccc(Nc2nc(N)c(C(=O)c3c(F)cccc3F)s2)cc1
B: CC(C)C(C)NC(=O)c1ccc(Nc2nc(N)c(C(=O)c3c(F)cccc3F)s2)cc1 (stereo not shown)
C: Nc1nc(Nc2ccc(C(=O)NCCN3CCOCC3)cc2)sc1C(=O)c1c(F)cccc1F
# ascending order, key=CDK2 % Inhibition at 0.03 μM Response format: the labels, sorted as the prompt asks.
B, A, C
(B: −20%, A: 5%, C: 10%)

---

- target of assay: human CDK4/cyclin D3 (Homo sapiens)
- Sequence (P11802 whole entry): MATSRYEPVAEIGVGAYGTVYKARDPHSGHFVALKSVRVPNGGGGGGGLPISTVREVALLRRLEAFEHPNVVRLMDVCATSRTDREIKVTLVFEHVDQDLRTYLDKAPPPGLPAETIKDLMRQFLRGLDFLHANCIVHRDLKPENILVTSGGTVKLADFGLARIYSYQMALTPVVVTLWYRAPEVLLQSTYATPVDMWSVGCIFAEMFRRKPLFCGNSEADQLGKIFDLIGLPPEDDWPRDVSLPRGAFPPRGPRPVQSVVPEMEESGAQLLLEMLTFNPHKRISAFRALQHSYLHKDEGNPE
- Sequence (P30281 1-264 partner limits assumed): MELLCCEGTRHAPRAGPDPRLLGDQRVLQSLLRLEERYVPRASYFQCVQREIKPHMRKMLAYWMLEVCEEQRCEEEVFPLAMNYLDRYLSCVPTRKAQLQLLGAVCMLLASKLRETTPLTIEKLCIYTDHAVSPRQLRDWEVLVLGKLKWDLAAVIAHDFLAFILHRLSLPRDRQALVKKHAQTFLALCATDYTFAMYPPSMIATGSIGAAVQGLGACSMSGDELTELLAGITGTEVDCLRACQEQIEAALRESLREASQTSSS
- assay text: Inhibition of CDK4/cyclin D retinoblastoma kinase activity (Ki; % inhibition)
- settings: apparent Ki, CDK4/cyclin D3, Rb substrate
Counter-ions that a name gives are not always drawn.
property: Ki (nM)

In the examples that follow, each entry is paired with its recorded Ki.
{"compound": "Nc1nc(Nc2ccc(C(=O)Nc3ccccc3)cc2)sc1C(=O)c1c(F)cccc1F [Example A9]", "readout number": 12}
{"compound": "C[C@@H](CN(C)C)N(C)C(=O)c1ccc(Nc2nc(N)c(C(=O)c3c(F)cccc3F)s2)cc1 [Example A36]", "readout number": 44}
{"compound": "CCN1CCC[C@H]1CNC(=O)c1ccc(Nc2nc(N)c(C(=O)c3c(F)cccc3F)s2)cc1 [Example A38]", "readout number": 24}
{"compound": "CN1CC[C@H](NC(=O)c2ccc(Nc3nc(N)c(C(=O)c4c(F)cccc4F)s3)cc2)C1 [Example A32]", "readout number": 6}
{"compound": "CN1CCC[C@H]1CNC(=O)c1ccc(Nc2nc(N)c(C(=O)c3ccccc3S(C)(=O)=O)s2)cc1 [Example A73, Trifluoroacetic Acid Salt]", "readout number": 36000}

A: C[C@@H](NC(=O)c1ccc(Nc2nc(N)c(C(=O)c3c(F)cccc3F)s2)cc1)C(=O)O [Example A65, Trifluoroacetic Acid Salt]
B: C[C@H](NC(=O)c1ccc(Nc2nc(N)c(C(=O)c3c(F)cccc3F)s2)cc1)[C@@H]1CCCN1C [Example A69]
Among A and B , whose measured Ki is the smaller figure? Select an item and report its label.
A

a: CN(C)C1(CNC(=O)c2ccc(Nc3nc(N)c(C(=O)c4c(F)cccc4F)s3)cc2)CCC1 [Example A78]
b: CN1CCCC[C@H]1CNC(=O)c1ccc(Nc2nc(N)c(C(=O)c3c(F)cccc3F)s2)cc1 [Example A43]
Which item exceeds the other in Ki, a or b ? Select an item and report its label.
b
(b: 13 nM, a: 8.2 nM)

I: Nc1nc(Nc2ccc(C(=O)NCC(O)CO)cc2)sc1C(=O)c1c(Cl)cccc1Cl (centres unmarked) [Example B3]
II: Nc1nc(Nc2ccc(C(=O)Nc3ccc4c(c3)OCCO4)cc2)sc1C(=O)c1c(F)cccc1F [Example A17]
III: Nc1nc(Nc2ccc(C(=O)NC3Cc4ccccc4C3)cc2)sc1C(=O)c1c(F)cccc1F [Example A22]
Reorder: Ki, max to min. Response format: the labels, sorted as the prompt asks.
II, I, III
(II: 26 nM, I: 8 nM, III: 5 nM)
